Origin of measurements: patent US20100280227A1

Target: T1, mouse BR3 extracellular domain (mouse, UniProt Q9D8D0 1-64)
T1 construct: also called mBR3-ECD; mBR-ECD
T1 sequence: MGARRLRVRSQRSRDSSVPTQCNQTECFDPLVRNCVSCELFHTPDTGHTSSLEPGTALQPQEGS
Experiment: phage competition ELISA
Measured Parameter: pIC50
Would you please state pIC50, meaning minus log10 of the concentration in mol/L, as a bare number?

Before answering, review these 4 worked examples.
### Prompt I have this binder here, V3-46s-33 phage clone (Fab, V domains shown) VH: EVQLVESGGGLVQPGGSLRLSCAASGFTISSSSIHWVRQAPGKGLEWVAWVLPSVGFTDYADSVKGRFTISADTSKNTAYLQMNSLRAEDTAVYYCARRVCYNRLGVCAGGMDYWGQGTLVTVSS VL: DIQMTQSPSSLSASVGDRVTITCRASEEISTAVAWYQQKPGKAPKLLIFSASYLYSGVPSRFSGSGSGTDFTLTISSLQPEDFATYYCQQSEVSPPTFGQGTKVEIK , and I need its recorded pIC50.
### Response 9.14

### Prompt Moving on to the next binder: V3-46s-7 phage clone (Fab, V domains shown) VH: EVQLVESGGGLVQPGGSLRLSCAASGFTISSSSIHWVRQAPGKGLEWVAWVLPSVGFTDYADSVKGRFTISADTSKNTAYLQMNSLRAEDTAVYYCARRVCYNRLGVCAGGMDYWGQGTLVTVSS VL: DIQMTQSPSSLSASVGDRVTITCRASEDISSSVAWYQQKPGKAPKLLIFSASFLFSGVPSRFSGSGSGTDFTLTISSLQPEDFATYYCQQSEVSPPTFGQGTKVEIK
### Response 9.02

### Prompt Moving on to the next binder: V3-46s-10 phage clone (Fab, V domains shown) VH: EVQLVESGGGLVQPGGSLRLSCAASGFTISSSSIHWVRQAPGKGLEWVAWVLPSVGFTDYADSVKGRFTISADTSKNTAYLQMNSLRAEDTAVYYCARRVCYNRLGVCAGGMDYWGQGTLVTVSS VL: DIQMTQSPSSLSASVGDRVTITCRASEDISSAVAWYQQKPGKAPKLLIFAASYLFSGVPSRFSGSGSGTDFTLTISSLQPEDFATYYCQQSQVSPPTFGQGTKVEIK
### Response 9.71

### Prompt Moving on to the next binder: V3-46s-31 phage clone (Fab, V domains shown) VH: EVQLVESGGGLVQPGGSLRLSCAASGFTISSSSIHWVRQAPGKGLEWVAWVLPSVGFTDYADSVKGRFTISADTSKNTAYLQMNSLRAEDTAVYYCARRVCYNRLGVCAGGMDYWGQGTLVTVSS VL: DIQMTQSPSSLSASVGDRVTITCRASQDIATSVAWYQQKPGKAPKLLIFAASYLFSGVPSRFSGSGSGTDFTLTISSLQPEDFATYYCQQSQVSPPTFGQGTKVEIK
### Response 9.47

More entries:
### Prompt I have this binder here, V3-46s-40 phage clone (Fab, V domains shown) VH: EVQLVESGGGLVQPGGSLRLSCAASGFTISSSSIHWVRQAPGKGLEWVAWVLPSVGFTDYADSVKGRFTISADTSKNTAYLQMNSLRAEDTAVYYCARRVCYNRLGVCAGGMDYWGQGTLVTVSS VL: DIQMTQSPSSLSASVGDRVTITCRASEEIATSVAWYQQKPGKAPKLLIFSASYLYSGVPSRFSGSGSGTDFTLTISSLQPEDFATYYCQQSQVSPPTFGQGTKVEIK , and I need its recorded pIC50.
### Response 9.28

### Prompt Moving on to the next binder: V3-46s-45 phage clone (Fab, V domains shown) VH: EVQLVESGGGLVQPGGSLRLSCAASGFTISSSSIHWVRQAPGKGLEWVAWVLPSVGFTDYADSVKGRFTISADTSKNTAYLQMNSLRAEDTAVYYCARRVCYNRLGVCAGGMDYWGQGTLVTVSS VL: DIQMTQSPSSLSASVGDRVTITCRASEDVSSAVAWYQQKPGKAPKLLIFAASYLFSGVPSRFSGSGSGTDFTLTISSLQPEDFATYYCQHSQVSPPTFGQGTKVEIK
### Response 9.43

### Prompt Moving on to the next binder: V3-46s-29 phage clone (Fab, V domains shown) VH: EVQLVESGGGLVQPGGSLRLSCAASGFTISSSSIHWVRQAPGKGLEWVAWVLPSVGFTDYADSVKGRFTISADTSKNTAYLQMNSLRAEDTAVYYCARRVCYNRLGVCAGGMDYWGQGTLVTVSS VL: DIQMTQSPSSLSASVGDRVTITCRASEEIATAVAWYQQKPGKAPKLLIFAASFLYSGVPSRFSGSGSGTDFTLTISSLQPEDFATYYCQQSEVSPPTFGQGTKVEIK
### Response 9.26

### Prompt Moving on to the next binder: V3-46s-13 phage clone (Fab, V domains shown) VH: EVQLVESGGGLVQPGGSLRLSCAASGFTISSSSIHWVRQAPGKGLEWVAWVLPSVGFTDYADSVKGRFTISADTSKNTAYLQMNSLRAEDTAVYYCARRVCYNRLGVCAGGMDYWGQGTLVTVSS VL: DIQMTQSPSSLSASVGDRVTITCRASEEIATAVAWYQQKPGKAPKLLIFAASYLFSGVPSRFSGSGSGTDFTLTISSLQPEDFATYYCQQSQVAPPTFGQGTKVEIK
### Response 9.15

### Prompt Moving on to the next binder: V3-46s-1 phage clone (Fab, V domains shown) VH: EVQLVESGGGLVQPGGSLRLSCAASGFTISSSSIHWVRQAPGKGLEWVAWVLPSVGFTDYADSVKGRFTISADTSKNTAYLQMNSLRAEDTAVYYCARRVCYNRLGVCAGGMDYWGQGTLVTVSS VL: DIQMTQSPSSLSASVGDRVTITCRASEDIATSVAWYQQKPGKAPKLLIFAASFLYSGVPSRFSGSGSGTDFTLTISSLQPEDFATYYCQQSQISPPTFGQGTKVEIK
### Response 9.52

### Prompt Moving on to the next binder: V3-46s-12 phage clone (Fab, V domains shown, differs from V3-46s in CDR-H1 as well) VH: EVQLVESGGGLVQPGGSLRLSCAASGFTIASSSIHWVRQAPGKGLEWVAWVLPSVGFTDYADSVKGRFTISADTSKNTAYLQMNSLRAEDTAVYYCARRVCYNRLGVCAGGMDYWGQGTLVTVSS VL: DIQMTQSPSSLSASVGDRVTITCRASEDISSAVAWYQQKPGKAPKLLIFAASFLYSGVPSRFSGSGSGTDFTLTISSLQPEDFATYYCQQSQISPPTFGQGTKVEIK
### Response 9.68
